- method: Intrinsic clearance in mouse kidney microsome at 0.05 to 4 mM
- Type: ADME
- condition-context: kidney microsomes
readout-label: microsomal CLint at up to 4000 µM (µL/min/mg)

[[record]]
molecule = "CCOc1ccc(NC(C)=O)cc1 [PHENACETIN]"
assay_result = 0.4


====

- method: Intrinsic clearance in human jejunum microsome at 0.05 to 1 mM
- Assay type: ADME
- condition-context: jejunum microsomes
readout-label: microsomal CLint at up to 1000 µM (µL/min/mg)

[[record]]
smiles_code = "CO[C@H]1/C=C/O[C@@]2(C)Oc3c(C)c(O)c4c(O)c(c(/C=N/N5CCN(C)CC5)c(O)c4c3C2=O)NC(=O)/C(C)=C\\C=C\\[C@H](C)[C@H](O)[C@@H](C)[C@@H](O)[C@@H](C)[C@H](OC(C)=O)[C@@H]1C"
display_unit = "µL/min/mg"
assay_result = 0.7


====

- method: Intrinsic clearance in rat lung microsome at 0.025 to 0.75 mM
- Type: ADME
- condition-context: lung microsomes
readout-label: microsomal CLint at up to 750 µM (µL/min/mg)

[[record]]
compound = "CC(C)C(=O)Nc1ccc([N+](=O)[O-])c(C(F)(F)F)c1 [FLUTAMIDE]"
readout_label = "microsomal CLint at up to 750 µM"
assay_result = 0.1


====

- method: Intrinsic clearance in rat kidney microsome at 0.025 to 0.75 mM
- Format: ADME
- condition-context: kidney microsomes
readout-label: microsomal CLint at up to 750 µM (µL/min/mg)

[[record]]
compound = "CC(C)C(=O)Nc1ccc([N+](=O)[O-])c(C(F)(F)F)c1 [FLUTAMIDE]"
readout_label = "microsomal CLint at up to 750 µM"
assay_result = 0.2


====

- method: Intrinsic clearance in rat kidney microsome at 0.05 to 4 mM
- Assay type: ADME
- condition-context: kidney microsomes
readout-label: microsomal CLint at up to 4000 µM (µL/min/mg)

[[record]]
smiles_code = "CCOc1ccc(NC(C)=O)cc1"
assay_result = 0.1


====

- method: Intrinsic clearance in human kidney microsome at 0.025 to 0.75 mM
- Type: ADME
- condition-context: kidney microsomes
readout-label: microsomal CLint at up to 750 µM (µL/min/mg)

[[record]]
molecule = "CC(C)C(=O)Nc1ccc([N+](=O)[O-])c(C(F)(F)F)c1 [FLUTAMIDE]"
assay_result = 1.2


====

- method: Intrinsic clearance in human Liver microsome at 0.05 to 1 mM
- Type: ADME
- condition-context: liver microsomes, read-out: CLH
readout-label: microsomal CLint at up to 1000 µM (µL/min/mg)

[[record]]
smiles_code = "CO[C@H]1/C=C/O[C@@]2(C)Oc3c(C)c(O)c4c(O)c(c(/C=N/N5CCN(C)CC5)c(O)c4c3C2=O)NC(=O)/C(C)=C\\C=C\\[C@H](C)[C@H](O)[C@@H](C)[C@@H](O)[C@@H](C)[C@H](OC(C)=O)[C@@H]1C"
assay_result = 0.7


====

- method: Intrinsic clearance in mouse Liver microsome at 0.05 to 1 mM
- Format: ADME
- condition-context: liver microsomes, read-out: CLH
readout-label: microsomal CLint at up to 1000 µM (µL/min/mg)

[[record]]
smiles_code = "CO[C@H]1/C=C/O[C@@]2(C)Oc3c(C)c(O)c4c(O)c(c(/C=N/N5CCN(C)CC5)c(O)c4c3C2=O)NC(=O)/C(C)=C\\C=C\\[C@H](C)[C@H](O)[C@@H](C)[C@@H](O)[C@@H](C)[C@H](OC(C)=O)[C@@H]1C"
readout_label = "microsomal CLint at up to 1000 µM"
assay_result = 0.2


====

- method: Intrinsic clearance in rat Liver microsome at 0.05 to 4 mM
- Assay type: ADME
- condition-context: liver microsomes, read-out: CLH
readout-label: microsomal CLint at up to 4000 µM (µL/min/mg)

[[record]]
smiles_code = "CCOc1ccc(NC(C)=O)cc1"
display_unit = "µL/min/mg"
assay_result = 0.2


====

- method: Intrinsic clearance in human jejunum microsome at 0.05 to 4 mM
- Assay type: ADME
- condition-context: jejunum microsomes
readout-label: microsomal CLint at up to 4000 µM (µL/min/mg)

[[record]]
smiles_code = "CCOc1ccc(NC(C)=O)cc1"
assay_result = 4


====

- method: Intrinsic clearance in rat Liver microsome at 0.025 to 0.75 mM
- Assay type: ADME
- condition-context: liver microsomes, read-out: CLH
readout-label: microsomal CLint at up to 750 µM (µL/min/mg)

[[record]]
compound = "CC(C)C(=O)Nc1ccc([N+](=O)[O-])c(C(F)(F)F)c1 [FLUTAMIDE]"
assay_result = 1.4


====

- system-tested: Arylacetamide deacetylase (Homo sapiens, UniProt P22760)
- Sequence (P22760 whole entry): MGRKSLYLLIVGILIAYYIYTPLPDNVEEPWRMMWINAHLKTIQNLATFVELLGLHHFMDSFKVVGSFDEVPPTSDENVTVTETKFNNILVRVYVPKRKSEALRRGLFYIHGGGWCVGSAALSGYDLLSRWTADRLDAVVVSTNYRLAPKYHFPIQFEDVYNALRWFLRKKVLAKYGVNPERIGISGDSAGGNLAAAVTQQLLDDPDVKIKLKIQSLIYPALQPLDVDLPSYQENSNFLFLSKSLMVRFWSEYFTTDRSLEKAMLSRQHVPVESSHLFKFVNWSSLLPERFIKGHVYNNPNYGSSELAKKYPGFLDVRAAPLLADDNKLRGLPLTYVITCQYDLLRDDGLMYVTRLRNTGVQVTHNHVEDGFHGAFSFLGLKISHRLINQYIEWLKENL
- method: Inhibition of AADAC in human kidney microsome
readout-label: Ki (nM)

[[record]]
compound = "CC(C)C(=O)Nc1ccc([N+](=O)[O-])c(C(F)(F)F)c1 [FLUTAMIDE]"
assay_result = 600


====

- method: Intrinsic clearance in mouse kidney microsome at 0.025 to 0.75 mM
- Format: ADME
- condition-context: kidney microsomes
readout-label: microsomal CLint at up to 750 µM

[[record]]
molecule = "CC(C)C(=O)Nc1ccc([N+](=O)[O-])c(C(F)(F)F)c1 [FLUTAMIDE]"
readout_label = "microsomal CLint at up to 750 µM"
assay_result = "0.6 µL/min/mg"


====

- method: Intrinsic clearance in human jejunum microsome at 0.005 to 0.75 mM
- Assay type: ADME
- condition-context: jejunum microsomes
readout-label: microsomal CLint at up to 750 µM

[[record]]
molecule = "CC(C)C(=O)Nc1ccc([N+](=O)[O-])c(C(F)(F)F)c1 [FLUTAMIDE]"
assay_result = "12.9 µL/min/mg"


====

- method: Intrinsic clearance in human Liver microsome at 0.025 to 0.75 mM
- Format: ADME
- condition-context: liver microsomes, read-out: CLH
readout-label: microsomal CLint at up to 750 µM (µL/min/mg)

[[record]]
compound = "CC(C)C(=O)Nc1ccc([N+](=O)[O-])c(C(F)(F)F)c1 [FLUTAMIDE]"
readout_label = "microsomal CLint at up to 750 µM"
display_unit = "µL/min/mg"
assay_result = 1.8


====

- method: Intrinsic clearance in mouse Liver microsome at 0.05 to 4 mM
- Format: ADME
- condition-context: liver microsomes, read-out: CLH
readout-label: microsomal CLint at up to 4000 µM (µL/min/mg)

[[record]]
compound = "CCOc1ccc(NC(C)=O)cc1 [PHENACETIN]"
readout_label = "microsomal CLint at up to 4000 µM"
assay_result = 1.3


====

- method: Intrinsic clearance in rat jejunum microsome at 0.05 to 4 mM
- Format: ADME
- condition-context: jejunum microsomes
readout-label: microsomal CLint at up to 4000 µM (µL/min/mg)

[[record]]
molecule = "CCOc1ccc(NC(C)=O)cc1 [PHENACETIN]"
assay_result = 0.1

